This collection of values is drawn from patent US7538106B2.

target: 5-HT2c (h) (Homo sapiens)
Sequence (P28335 33-458): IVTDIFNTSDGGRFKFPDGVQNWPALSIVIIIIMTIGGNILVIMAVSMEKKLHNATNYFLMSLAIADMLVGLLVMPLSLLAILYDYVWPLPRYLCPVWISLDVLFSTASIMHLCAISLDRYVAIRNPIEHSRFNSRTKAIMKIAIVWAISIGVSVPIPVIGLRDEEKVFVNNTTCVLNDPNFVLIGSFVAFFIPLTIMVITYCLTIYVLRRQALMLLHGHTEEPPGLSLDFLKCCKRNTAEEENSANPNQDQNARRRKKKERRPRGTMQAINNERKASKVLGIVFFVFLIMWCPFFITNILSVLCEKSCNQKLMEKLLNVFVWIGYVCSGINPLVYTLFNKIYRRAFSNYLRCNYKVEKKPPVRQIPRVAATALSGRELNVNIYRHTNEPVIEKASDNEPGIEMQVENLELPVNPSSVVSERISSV
MEASUREMENT_TYPE: IC50

Inquiry: Query: IC50; subject: CNCC(C)CN1c2ccccc2Sc2ccc(C#N)cc21 (stereo not shown)
Reply text: 23 nM

###

biological target: H1 (h) (Homo sapiens, UniProt P35367)
Sequence (P35367 whole entry): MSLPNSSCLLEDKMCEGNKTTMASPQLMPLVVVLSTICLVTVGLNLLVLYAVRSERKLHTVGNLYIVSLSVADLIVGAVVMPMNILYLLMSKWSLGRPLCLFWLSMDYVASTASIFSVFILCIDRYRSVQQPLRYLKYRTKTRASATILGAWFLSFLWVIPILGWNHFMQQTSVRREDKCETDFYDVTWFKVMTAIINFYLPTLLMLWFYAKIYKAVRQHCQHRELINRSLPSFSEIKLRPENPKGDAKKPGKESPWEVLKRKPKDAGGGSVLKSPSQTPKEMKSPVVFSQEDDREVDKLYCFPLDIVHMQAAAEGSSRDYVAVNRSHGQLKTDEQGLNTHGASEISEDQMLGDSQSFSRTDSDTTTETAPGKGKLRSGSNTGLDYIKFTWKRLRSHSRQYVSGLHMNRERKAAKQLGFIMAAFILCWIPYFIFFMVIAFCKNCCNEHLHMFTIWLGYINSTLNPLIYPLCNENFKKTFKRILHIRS
MEASUREMENT_TYPE: Ki (nM)
Please respond with the number in nM and leave the unit unwritten.

Inquiry: Value wanted: Ki (H1 (h) (Homo sapiens, UniProt P35367)) of entry CNCC(C)CN1c2ccccc2Sc2ccc(C#N)cc21 (stereo not shown)
Reply text: 9.3

###

Biological target: M2 (h) (Homo sapiens)
Sequence (P08172 1-466): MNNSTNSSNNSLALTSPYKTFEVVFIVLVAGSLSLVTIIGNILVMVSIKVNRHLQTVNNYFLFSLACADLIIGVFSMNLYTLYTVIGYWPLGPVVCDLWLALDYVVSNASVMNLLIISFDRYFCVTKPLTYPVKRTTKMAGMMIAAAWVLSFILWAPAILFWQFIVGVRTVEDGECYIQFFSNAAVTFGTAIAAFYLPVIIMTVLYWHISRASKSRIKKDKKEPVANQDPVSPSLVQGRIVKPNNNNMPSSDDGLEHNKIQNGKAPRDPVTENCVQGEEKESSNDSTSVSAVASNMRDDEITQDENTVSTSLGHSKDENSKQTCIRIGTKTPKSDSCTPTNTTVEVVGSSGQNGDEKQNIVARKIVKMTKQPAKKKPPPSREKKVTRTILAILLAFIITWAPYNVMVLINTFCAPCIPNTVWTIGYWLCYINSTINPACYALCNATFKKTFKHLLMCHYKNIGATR
MEASUREMENT_TYPE: pKi
# reply with the number alone; pKi is -log10 of concentration in mol/L

Inquiry: Query: pKi; subject: CNCC(C)CN1c2ccccc2Sc2ccc(C#N)cc21 (stereo not shown)
Reply text: 6.60
